- TESTED_SYSTEM: RARΓ (Homo sapiens)
- Construct: made in house; used as extract protein
- ASSAY_EXPLANATION: Ligand binding assay
- STATED_CONDITIONS: receptor expressed in Baculovirus; competition with [3H] retinoic acid; Cheng-Prusoff from IC50; read-out: Kd RARΓ
Kd values, listed per item

INSERT INTO assay_data (smiles_string, readout_kind, result) VALUES
  ('CC1(C)CC(C)(C)c2cc(C(=O)Nc3ccc(C(=O)O)c(F)c3)cc(I)c2O1', 'Kd', '> 1000 nM'),
  ('CC1(C)CC(C)(C)c2cc(C(=O)Nc3ccc(C(=O)O)c(F)c3)cc(Br)c2O1', 'Kd', '> 1000 nM'),
  ('CC1(C)CCC(C)(C)c2cc(C(=O)Nc3ccc(C(=O)O)c(F)c3)ccc21', 'Kd', '> 1000 nM'),
  ('CC1(C)CCC(C)(C)c2cc(C(=O)Nc3ccc(C(=O)O)c(F)c3)c(O)cc21', 'Kd', '> 1000 nM');

Consider CC1(C)CCC(C)(C)c2cc(C(=O)Nc3ccc(C(=O)O)cc3)c(F)cc21 . Its measured Kd is 96 nM

* * *

- TESTED_SYSTEM: RARα (Homo sapiens)
- Construct: made in house; used as extract protein
- ASSAY_EXPLANATION: Ligand binding assay
- STATED_CONDITIONS: receptor expressed in Baculovirus; competition with [3H] retinoic acid; Cheng-Prusoff from IC50; read-out: Kd RARα
pKd: −log10 of the molar value.
READOUT_KIND: pKd

INSERT INTO assay_data (compound, quantitative_result) VALUES
  ('CC1(C)CC(C)(C)c2cc(C(=O)Nc3ccc(C(=O)O)c(F)c3)cc(C(F)(F)F)c2O1 [Compound 14]', 7.85);

A = CC1(C)CCC(C)(C)c2cc(C(=O)Nc3cc(F)c(C(=O)O)c(F)c3)ccc21 [Compound 38]
B = CC1(C)CCC(C)(C)c2cc(C(=S)Nc3ccc(C(=O)O)cc3)ccc21 [Compound 26]
C = CC1(C)CC(C)(C)c2cc(C(=O)Nc3ccc(C(=O)O)c(F)c3)cc(Br)c2O1 [Compound 12]
D = Cc1cc(C(=O)Nc2ccc(C(=O)O)c(F)c2)cc2c1OC(C)(C)CC2(C)C [Compound 22]
Query :: Order the entries by their reported pKd, beginning at the minimum. # output: labels, in the requested order
Result :: D, C, B, A
(D: 7.24, C: 7.62, B: 7.82, A: 8.05)

* * *

# reported Kd; entries follow
- TESTED_SYSTEM: RARβ (Homo sapiens)
- Sequence (P10826 whole entry, species assumed): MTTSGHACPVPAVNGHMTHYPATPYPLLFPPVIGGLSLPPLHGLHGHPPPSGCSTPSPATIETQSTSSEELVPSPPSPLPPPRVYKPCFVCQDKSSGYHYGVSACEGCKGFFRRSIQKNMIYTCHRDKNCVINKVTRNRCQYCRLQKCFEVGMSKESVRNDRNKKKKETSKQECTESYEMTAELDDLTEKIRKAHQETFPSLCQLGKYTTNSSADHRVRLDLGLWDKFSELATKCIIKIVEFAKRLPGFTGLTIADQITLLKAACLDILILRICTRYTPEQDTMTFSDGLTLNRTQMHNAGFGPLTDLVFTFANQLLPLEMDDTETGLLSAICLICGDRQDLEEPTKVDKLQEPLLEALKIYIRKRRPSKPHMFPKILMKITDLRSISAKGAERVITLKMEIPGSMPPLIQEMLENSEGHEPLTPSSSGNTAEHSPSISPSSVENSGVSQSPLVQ

# count of solved cases: 3
INSERT INTO results (smiles_string, result) VALUES
  ('Cc1cc(C(=O)Nc2ccc(C(=O)O)c(F)c2)cc2c1OC(C)(C)CC2(C)C', '> 1000 nM'),
  ('CC1(C)CCC(C)(C)c2c(Br)cc(C(=O)Nc3ccc(C(=O)O)c(F)c3)cc21', '> 1000 nM'),
  ('CC1(C)CCC(C)(C)c2cc(C(=O)Nc3ccc(C(=O)O)c(F)c3)ccc21', '480 nM');

So the reported Kd for CC1(C)CCC(C)(C)c2c1cc(C(=O)Nc1cc(F)c(C(=O)O)c(F)c1)c(O)c2Br , on RARβ (Homo sapiens), turned out to be > 1000 nM

Response field Kd (RARβ (Homo sapiens)) for item CC1(C)CC(C)(C)c2cc(C(=O)Nc3ccc(C(=O)O)c(F)c3)ccc2O1 : > 1000 nM

Readout Kd for CC1(C)CCC(C)(C)c2cc(C(=O)Nc3ccc(C(=O)O)c(F)c3)c(O)cc21 , test system RARβ (Homo sapiens), was > 1000 nM

Let me check: CC1(C)CCC(C)(C)c2cc(C(=O)Nc3ccc(C(=O)O)cc3)c(F)cc21 , system RARβ (Homo sapiens), measured Kd is 23 nM

Reading of Kd for CC1(C)CC(C)(C)c2cc(C(=O)Nc3ccc(C(=O)O)c(F)c3)cc(Br)c2O1 with RARβ (Homo sapiens): > 1000 nM

* * *

- TESTED_SYSTEM: RARα (Homo sapiens, UniProt P10276)
- Construct: made in house; used as extract protein
- Sequence (P10276 whole entry, species assumed): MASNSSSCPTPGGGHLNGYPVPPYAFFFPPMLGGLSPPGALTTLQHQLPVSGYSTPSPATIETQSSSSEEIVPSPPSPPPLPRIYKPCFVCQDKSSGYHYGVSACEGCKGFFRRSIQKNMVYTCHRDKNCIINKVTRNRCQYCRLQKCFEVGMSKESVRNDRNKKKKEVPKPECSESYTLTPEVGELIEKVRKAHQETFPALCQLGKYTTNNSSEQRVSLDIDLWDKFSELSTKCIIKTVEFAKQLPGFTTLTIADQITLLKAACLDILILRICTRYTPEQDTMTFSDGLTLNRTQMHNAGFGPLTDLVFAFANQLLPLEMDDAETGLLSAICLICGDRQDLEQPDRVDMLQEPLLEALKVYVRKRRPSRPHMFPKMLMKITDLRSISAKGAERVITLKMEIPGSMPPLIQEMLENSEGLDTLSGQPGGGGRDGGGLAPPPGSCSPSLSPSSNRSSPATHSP
- ASSAY_EXPLANATION: Ligand binding assay
- STATED_CONDITIONS: receptor expressed in Baculovirus; competition with [3H] retinoic acid; Cheng-Prusoff from IC50; read-out: Kd RARα
READOUT_KIND: Kd (nM)

Reference set, count: 3
INSERT INTO measurements (smiles_string, tested_system, quantitative_result) VALUES
  ('CC1(C)CCC(C)(C)c2cc(C(=O)Nc3ccc(C(=O)O)c(F)c3)ccc21', 'RARα (Homo sapiens, UniProt P10276)', 1.9),
  ('CC1(C)CCC(C)(C)c2cc(C(=O)Nc3ccc(C(=O)O)c(F)c3)c(O)cc21', 'RARα (Homo sapiens, UniProt P10276)', 3),
  ('CC1(C)CC(C)(C)c2cc(C(=O)Nc3cc(F)c(C(=O)O)c(F)c3)cc(C(F)(F)F)c2O1', 'RARα (Homo sapiens, UniProt P10276)', 51);

A = CC1(C)CC(C)(C)c2cc(C(=O)Nc3ccc(C(=O)O)c(F)c3)cc(N=[N+]=[N-])c2O1
B = CC1(C)CC(C)(C)c2cc(C(=O)Nc3ccc(C(=O)O)c(F)c3)cc(I)c2O1
C = CC1(C)CCC(C)(C)c2cc(C(=O)Nc3ccc(C(=O)O)cc3)c(F)cc21
D = CC1(C)CCC(C)(C)c2c(Br)cc(C(=O)Nc3ccc(C(=O)O)c(F)c3)cc21
E = CC1(C)CC(C)(C)c2cc(C(=O)Nc3ccc(C(=O)O)c(F)c3)ccc2O1
Query :: Rank order required: Kd, descending. State the ranking by listing the labels in the requested order.
Result :: E, A, C, B, D
(E: 162 nM, A: 52 nM, C: 23 nM, B: 16 nM, D: 1.3 nM)

* * *

- TESTED_SYSTEM: RARΓ (Homo sapiens, UniProt P13631)
- Construct: made in house; used as extract protein
- Sequence (P13631 whole entry, species assumed): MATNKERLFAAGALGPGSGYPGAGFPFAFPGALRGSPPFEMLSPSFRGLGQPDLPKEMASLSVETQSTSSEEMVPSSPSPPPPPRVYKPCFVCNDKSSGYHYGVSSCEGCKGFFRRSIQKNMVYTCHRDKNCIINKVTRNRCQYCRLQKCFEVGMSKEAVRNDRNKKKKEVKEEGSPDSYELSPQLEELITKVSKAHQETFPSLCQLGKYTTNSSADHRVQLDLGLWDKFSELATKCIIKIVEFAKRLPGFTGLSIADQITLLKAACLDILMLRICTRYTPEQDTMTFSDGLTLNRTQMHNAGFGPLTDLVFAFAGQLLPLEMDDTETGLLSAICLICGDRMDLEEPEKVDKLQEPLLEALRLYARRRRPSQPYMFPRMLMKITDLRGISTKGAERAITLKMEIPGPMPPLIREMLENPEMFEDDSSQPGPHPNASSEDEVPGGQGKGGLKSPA
- ASSAY_EXPLANATION: Ligand binding assay
READOUT_KIND: Kd

The compound identified as CC1(C)CCC(C)(C)c2c1cc(C(=O)Nc1cc(F)c(C(=O)O)c(F)c1)c(O)c2Br registered its Kd at > 1 µM

Value source: patent US6342602B1
